Test system: Candida albicans
Assay: Antifungal activity against Candida albicans MTCC 3958 after 24 hrs by well diffusion method
Format: functional
Conditions: MTCC 3958, 24 h
reported property: MIC (µg/mL)
Unit µg/mL implied. Number only.

Completed entries (count: 3):
1. Clc1ccc(COC(Cn2ccnc2)c2ccc(Cl)cc2Cl)c(Cl)c1 (centres undefined) [MICONAZOLE] = 7.8
2. COc1ccc(NC(=O)Cn2nc(C(F)(F)F)c3c(-c4ccccc4)c4ccccc4nc32)cc1 = 31.2
3. O=C(Cn1nc(C(F)(F)F)c2c(-c3ccccc3)c3ccccc3nc21)NCCN1CCNCC1 = 15.6

Now, please, on to the next compound.
Looking for the measured MIC of "O=C(Cn1nc(C(F)(F)F)c2c(-c3ccccc3)c3ccccc3nc21)N1CCOCC1" , can you help?
31.2

---

# Lookup of reported MIC keyed by entry
System: Pichia sporocuriosa
Test: Antifungal activity against Issatchenkia hanoiensis MTCC 4755 after 24 hrs by well diffusion method
Assay type: functional
Settings: MTCC 4755, 24 h
State the answer as a number, implicitly in µg/mL.

# example entries with known answers
1) COc1ccc(NC(=O)Cn2nc(C(F)(F)F)c3c(-c4ccccc4)c4ccccc4nc32)cc1 = 31.2
2) Clc1ccc(COC(Cn2ccnc2)c2ccc(Cl)cc2Cl)c(Cl)c1 (centres undefined) = 7.8
3) O=C(Cn1nc(C(F)(F)F)c2c(-c3ccccc3)c3ccccc3nc21)NCCN1CCNCC1 = 7.8

// next item, MIC requested
Entry "O=C(Cn1nc(C(F)(F)F)c2c(-c3ccccc3)c3ccccc3nc21)N1CCOCC1" has what MIC?
15.6

---

System: Raoultella planticola
Assay: Antibacterial activity against Klebsiella planticola MTCC 530 after 24 hrs by well diffusion method
Type: functional
Settings: MTCC 530, 24 h
reported property: MIC

Worked cases, MIC given:
1) CCCCCCNC(=O)Cn1nc(C(F)(F)F)c2c(C)c3ccccc3nc21 = 7.8 to 125 µg/mL
2) Cc1nn(CC(=O)NC2CC2)c2nc3ccccc3c(C)c12 = 7.8 to 125 µg/mL
3) CCNC(=O)Cn1nc(C(F)(F)F)c2c(-c3ccccc3)c3ccccc3nc21 = 7.8 to 125 µg/mL

Param readout= MIC; system= Raoultella planticola; entry= "Cc1c2ccccc2nc2c1c(C(F)(F)F)nn2CC(=O)N1CCN(CCO)CC1" ; returns value.
7.8 to 125 µg/mL

Missing value: MIC, Raoultella planticola, entry "Cc1nn(CC(=O)NC2CCCCC2)c2nc3ccccc3c(C)c12" . Fill in?
7.8 to 125 µg/mL

Param readout = MIC; param system = Raoultella planticola; param query = "COc1ccc(NC(=O)Cn2nc(C(F)(F)F)c3c(-c4ccccc4)c4ccccc4nc32)cc1" ; response: value
7.8 µg/mL

What measured MIC is associated with "Cc1nn(CC(=O)Nc2ccc([N+](=O)[O-])cc2)c2nc3ccccc3c(C)c12" on Raoultella planticola?
7.8 to 125 µg/mL

Give Raoultella planticola MIC for "O=C(Cn1nc(C(F)(F)F)c2c(-c3ccccc3)c3ccccc3nc21)N1CCN(CCO)CC1"
7.8 to 125 µg/mL

# query: MIC | item "O=C(Cn1nc(C(F)(F)F)c2c(-c3ccccc3)c3ccccc3nc21)NCc1ccco1" | system: Raoultella planticola
7.8 to 125 µg/mL
